The reported measurements were obtained from patent US8716475B2.

tgt: human H4 receptor (Homo sapiens)
Construct: expressed in transfected cells
test: Binding Assay on Recombinant Human Histamine H4 Receptor
condition-notes: Table 2; [3H] histamine competition binding, membranes of SK-N-MC cells transfected with human H4 receptor; average of results
pKi: −log10 of the molar value.
Known pKi of a selection of compounds

# compound, pKi
data = [
    ("CN1CCN(c2cc(Cc3ccc(Cl)cc3)nc(N)n2)CC1", 8.10),
    ("CN[C@@H]1CCN(c2cc(Cc3ccc(Cl)cc3)nc(N)n2)C1", 7.74),
    ("Cc1nc(N)nc(N2CCN(C)CC2)c1F", 7.16),
    ("COCc1cc(N2CCCC(N)C2)nc(N)n1 (stereo in doubt)", 6.33),
    ("Nc1nc(C2CCCC2)cc(N2CC3CNCC3C2)n1 (centres unmarked)", 6.48),
    ("CN[C@H]1CCN(c2cc(COC)nc(N)n2)C1", 6.82),
    ("CCOCc1cc(N2CC[C@@H](N)C2)nc(N)n1", 7.66),
    ("CN1C[C@@H]2CN(c3cc(Cc4ccc(Cl)cc4)nc(N)n3)C[C@@H]2C1", 6.60),
    ("CN1CCN(c2cc(C3Cc4ccccc4C3)nc(N)n2)CC1", 8.70),
    ("Nc1nc(Cc2cccs2)cc(N2CC3CCCNC3C2)n1 (centres unmarked)", 8.05),
    ("Cc1nc(N)nc(N(C)CCN)c1F", 5.37),
    ("Nc1nc(C2CCCC2)cc(N2CCC3(CCCN3)C2)n1 (single isomer, unassigned) [Example 258]", 7.47),
    ("CC(C)c1cc(N2CC3NCCOC3C2)nc(N)n1 (single isomer, unassigned) [Example 94]", 6.30),
    ("CN[C@@H]1CCN(c2cc(CC3CCCO3)nc(N)n2)C1 (some centres unmarked)", 7.04),
    ("CN1C[C@@H]2CN(c3cc(C4CC4)nc(N)n3)C[C@@H]2C1", 6.95),
    ("CN1CCN(c2cc(CC3CCCO3)nc(N)n2)CC1 (centres unmarked)", 7.77),
    ("COc1c(C2CCCC2)nc(N)nc1N1CCNCC1", 6.67),
    ("CN1CCN(c2nc(N)nc3c2COCC3)CC1", 7.46),
    ("COCc1cc(N2CCN(C)CC2)nc(N)n1", 7.82),
    ("Nc1nc(CCc2ccccc2)cc(N2CCNCC2)n1", 8.52),
    ("CC(C)(C)c1cc(N2CC[C@@H](N)C2)nc(N)n1", 8.05),
    ("Cc1nc(N)nc(N2CC3CCCNC3C2)c1F (centres unmarked)", 6.63),
    ("CN[C@H]1CCN(c2nc(N)nc(C3CCCC3)c2OC)C1", 7.15),
    ("CN1CCN(c2cc(CCc3ccccc3)nc(N)n2)CC1", 8.22),
    ("CN1CCN(c2cc(C3CC3c3ccccc3)nc(N)n2)CC1 (centres unmarked)", 8.10),
    ("CCCc1cc(N2C[C@H]3CN(C)C[C@H]3C2)nc(N)n1", 6.93),
    ("Nc1nc(C2CCCC2)cc(N2CC3NCCOC3C2)n1 (single isomer, unassigned) [Example 86]", 7.25),
    ("CN1CCN(c2cc(C3(C)CCOCC3)nc(N)n2)CC1", 7.31),
    ("CN1CCN(c2cc(CCC(F)(F)F)nc(N)n2)CC1", 8.10),
    ("NCCNc1cc(C2CCOC2)nc(N)n1 (centres unmarked)", 7.23),
    ("CCCCc1cc(N2CC3CCCNC3C2)nc(N)n1 (centres unmarked)", 7.08),
    ("Nc1nc(C2CCOC2)cc(N2CCNCC2)n1 (single isomer, unassigned; (-)) [Example 193]", 7.51),
    ("CCCCc1nc(N)nc(N2CCN(C)CC2)c1OC", 7.08),
    ("CN[C@@H]1CCN(c2cc(C3(C)CCOCC3)nc(N)n2)C1", 7.09),
    ("CC1(c2cc(N3CCNCC3)nc(N)n2)CCOCC1", 7.01),
    ("Cc1nc(N)nc(N2CCNCC2)c1F", 6.41),
    ("CCOCc1cc(N2CCN(C)CC2)nc(N)n1", 7.54),
    ("CC(C)c1cc(NCCN)nc(N)n1", 7.72),
    ("CCCCc1nc(N)nc(N2CCCNCC2)c1OC", 6.74),
    ("Nc1nc(C2Cc3ccccc3C2)cc(N2CC(N)C2)n1", 7.62),
    ("CN(CCN)c1cc(C2CCOCC2)nc(N)n1", 5.99),
]

---

Recorded Ki for the following compounds
tgt: human H4 receptor (Homo sapiens, UniProt Q9H3N8)
Construct: expressed in transfected cells
Sequence (Q9H3N8 whole entry): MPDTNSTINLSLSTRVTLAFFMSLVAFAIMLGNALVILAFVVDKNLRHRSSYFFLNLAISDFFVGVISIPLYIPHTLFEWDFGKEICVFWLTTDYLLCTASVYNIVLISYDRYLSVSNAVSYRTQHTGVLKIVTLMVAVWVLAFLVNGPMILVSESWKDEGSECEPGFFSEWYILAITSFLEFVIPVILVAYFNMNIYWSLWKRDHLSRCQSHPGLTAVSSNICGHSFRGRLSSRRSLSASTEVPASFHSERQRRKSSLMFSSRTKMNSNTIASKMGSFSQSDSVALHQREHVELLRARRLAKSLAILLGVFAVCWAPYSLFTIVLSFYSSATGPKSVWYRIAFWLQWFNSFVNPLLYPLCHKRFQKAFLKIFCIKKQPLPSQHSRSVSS
test: Binding Assay on Recombinant Human Histamine H4 Receptor
condition-notes: Table 2; [3H] histamine competition binding, membranes of SK-N-MC cells transfected with human H4 receptor; average of results

# compound, relation-symbol, Ki (nM)
measured = [
    ("Nc1nc(C2CC2c2ccccc2)cc(N2CC[C@@H](N)C2)n1 (stereo in doubt)", "=", 29),
    ("CC(C)Cc1cc(N2CC[C@@H](N)C2)nc(N)n1", "=", 3),
    ("CNCCNc1cc(C2CCOC2)nc(N)n1 (stereo not drawn)", "=", 2450),
    ("CN[C@@H]1CCN(c2cc(CCc3ccccc3)nc(N)n2)C1", "=", 8),
    ("CN[C@H]1CCN(c2cc(C(C)C)nc(N)n2)C1", "=", 7),
    ("COc1c(NCCN)nc(N)nc1C1CCCC1", "=", 64),
    ("CCCCc1nc(N)nc(NCCN)c1OC", "=", 80),
    ("NCCNc1cc(Cc2cccs2)nc(N)n1", "=", 20),
    ("Nc1nc(CCc2ccccc2)cc(N2CC(N)C2)n1", "=", 9),
    ("COCc1cc(N2CC[C@H](N)C2)nc(N)n1", "=", 242),
    ("Nc1nc2c(c(N3C[C@H]4CCCN[C@H]4C3)n1)COCC2", "=", 20),
    ("Nc1nc(Cc2cccs2)cc(N2CCNCC2)n1", "=", 6),
    ("Nc1nc(C2Cc3ccccc3O2)cc(N2CC(N)C2)n1 (stereo not drawn)", "=", 932),
    ("CN(CCN)c1cc(Cc2ccc(Cl)cc2)nc(N)n1", "=", 1770),
    ("COc1c(C2CCCC2)nc(N)nc1N1CCN(C)CC1", "=", 300),
    ("Nc1nc(C2Cc3ccccc3O2)cc(N2CCNCC2)n1 (stereo not drawn)", "=", 106),
    ("Nc1nc2c(c(N3CCNCC3)n1)COCC2", "=", 262),
    ("CN[C@@H]1CCN(c2nc(N)nc(C3CCCC3)c2OC)C1", "=", 10),
    ("Nc1nc(C2CC2)cc(N2C[C@H]3CNC[C@H]3C2)n1", ">", 10000),
    ("COc1c(C2CCCC2)nc(N)nc1N1CC(N)C1", "=", 33),
    ("CC(C)(C)c1cc(N2CC[C@H](N)C2)nc(N)n1", "=", 46),
]

---

tgt: human H4 receptor (Homo sapiens, UniProt Q9H3N8)
Construct: expressed in transfected cells
test: Binding Assay on Recombinant Human Histamine H4 Receptor
condition-notes: Table 1; [3H] histamine competition binding, membranes of SK-N-MC cells transfected with human H4 receptor; average of results
Could you please mark fulfilled for values of Ki below 30 nM and not fulfilled for values at or above it?

# compound, category-label
records = [
    ("CN1CCN(c2nc(N)nc3c2CCCC3)CC1", "fulfilled"),
    ("Nc1nc(C2CCC2)cc(N2C[C@H]3CNC[C@H]3C2)n1", "not fulfilled"),
    ("CN[C@@H]1CCN(c2cc(C3CC3)nc(N)n2)C1", "fulfilled"),
    ("Nc1nc2c(c(N3C[C@H]4CCN[C@H]4C3)n1)CCCC2", "not fulfilled"),
    ("Nc1nc(C2CCOCC2)cc(N2C[C@H]3CCCN[C@H]3C2)n1", "fulfilled"),
    ("Cc1nc(N)nc(N2CC[C@@H](N)C2)c1C", "not fulfilled"),
    ("CN[C@@H]1CCN(c2cc(C3CCCC3)nc(N)n2)C1", "fulfilled"),
    ("Nc1nc(C2CCCC2)cc(N2CC3CCNC3C2)n1 (stereo not drawn)", "fulfilled"),
    ("CCc1cc(N2CC[C@@H](N)C2)nc(N)n1", "fulfilled"),
    ("CN1CCN(c2cc(C3CC3)nc(N)n2)CC1", "fulfilled"),
    ("CC(C)c1cc(N2C[C@H]3CCN[C@H]3C2)nc(N)n1", "not fulfilled"),
    ("CC(C)c1cc(N2C[C@H]3C[C@@H]2CN3)nc(N)n1", "not fulfilled"),
    ("Nc1nc(C2CCCCC2)cc(N2CC3CCNC3C2)n1 (stereo not drawn)", "fulfilled"),
    ("CC(C)c1cc(N2C[C@@H]3C[C@H]2CN3)nc(N)n1", "not fulfilled"),
    ("Nc1nc(C2CCCC2)cc(N2CC3CCCNC3C2)n1 (stereo not drawn)", "fulfilled"),
    ("CC(C)c1cc(N2CCC[C@H](N)C2)nc(N)n1", "not fulfilled"),
    ("CN1CCN(c2cc(C3CCCC3)nc(N)n2)CC1", "fulfilled"),
    ("CN[C@@H]1CCN(c2nc(N)nc(C)c2C)C1", "not fulfilled"),
    ("CC(C)c1cc(N2CC[C@@H](N)C2)nc(N)n1", "fulfilled"),
]
